# target.under.test: CGRP receptor (SK-N-MC cell membranes) (Homo sapiens, UniProt O60894+Q16602)
# Construct: endogenous in cells; host or cells: SK-N-MC cells (membrane homogenate)
# Sequence (Q16602 23-461): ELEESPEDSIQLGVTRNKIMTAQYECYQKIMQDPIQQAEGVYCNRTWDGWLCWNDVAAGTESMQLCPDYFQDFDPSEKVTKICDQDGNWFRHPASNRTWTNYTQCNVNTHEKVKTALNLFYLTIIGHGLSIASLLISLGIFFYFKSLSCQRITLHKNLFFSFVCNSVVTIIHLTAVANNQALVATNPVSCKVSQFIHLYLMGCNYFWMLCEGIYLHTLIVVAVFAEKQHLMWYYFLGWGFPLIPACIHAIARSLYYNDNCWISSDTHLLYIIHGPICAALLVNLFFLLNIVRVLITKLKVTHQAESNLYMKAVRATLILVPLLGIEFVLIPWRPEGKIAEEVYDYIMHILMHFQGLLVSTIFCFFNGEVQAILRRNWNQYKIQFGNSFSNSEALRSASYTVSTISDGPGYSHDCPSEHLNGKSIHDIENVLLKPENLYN
# Sequence (O60894 27-148): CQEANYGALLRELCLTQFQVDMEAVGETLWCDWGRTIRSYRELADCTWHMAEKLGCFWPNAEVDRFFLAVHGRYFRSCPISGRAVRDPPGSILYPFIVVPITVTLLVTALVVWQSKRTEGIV
# experiment.description: CGRP Binding Assay ([125I]-CGRP radioligand binding, SK-N-MC homogenate)
# reported.conditions: displacement of [125I]-CGRP, SK-N-MC homogenate; read-out: CGRP binding IC50
pIC50: −log10 of the molar value.
# pIC50 per record follows

Solved cases below.
>  <compound>
O=C(NC(Cc1ccc2[nH]ccc2c1)C(=O)N1CCC(N2CCCCC2)CC1)N1CCC(N2Cc3ccccc3NC2=O)CC1 (racemic) [Example 5]

>  <reported.result>
> 8.00

$$$$
>  <compound>
O=C(Cc1cccs1)N[C@@H](CC(=O)N1CCC(N2Cc3ccccc3NC2=O)CC1)C(=O)N1CCC(N2CCCCC2)CC1 [Example 117]

>  <reported.result>
6.00 to 7.00

$$$$
>  <compound>
Cc1cc(CC(NC(=O)N2CCC(N3Cc4ccccc4NC3=O)CC2)C(=O)O[C@H](C)c2ccncc2)cc2cn[nH]c12 (stereo partly shown) [Example 41e]

>  <reported.result>
> 8.00

$$$$
>  <compound>
O=C(N[C@H](Cc1ccc2[nH]c(=O)oc2c1)C(=O)N1CCC(N2CCCCC2)CC1)N1CCC(N2Cc3ccccc3NC2=O)CC1 [Example 47]

>  <reported.result>
> 8.00

$$$$
>  <compound>
COc1ccc(CC(NC(=O)N2CCC(N3Cc4ccccc4NC3=O)CC2)C(=O)N2CCC(N3CCCCC3)CC2)cn1 (racemic) [Example 57]

>  <reported.result>
6.00 to 7.00

$$$$
>  <compound>
COc1ccc(Cl)cc1NC(=O)N[C@@H](CC(=O)N1CCC(N2Cc3ccccc3NC2=O)CC1)C(=O)N1CCC(N2CCCCC2)CC1 [Example 187]

>  <reported.result>
6.00 to 7.00

$$$$

Return pIC50 for the following compound: Cc1nc(N[C@@H](CC(=O)N2CCC(N3Cc4ccccc4NC3=O)CC2)C(=O)N2CCC(N3CCCCC3)CC2)nc2nn[nH]c12 [Example 92]
7.00 to 8.00

Provide only the value of recorded pIC50 for O=C(N[C@@H](CC(=O)N1CCC(N2Cc3ccccc3NC2=O)CC1)C(=O)N1CCC(N2CCCCC2)CC1)c1cccc(OC(F)(F)F)c1 [Example 121]
6.00 to 7.00

Return reported pIC50. Input compound: O=C(Nc1cc(Cl)nc(Cl)c1)N[C@@H](CC(=O)N1CCC(N2Cc3ccccc3NC2=O)CC1)C(=O)N1CCC(N2CCCCC2)CC1 [Example 164]
6.00 to 7.00

Read off the recorded pIC50 for C[C@@H](NC(=O)N[C@@H](CC(=O)N1CCC(N2Cc3ccccc3NC2=O)CC1)C(=O)N1CCC(N2CCCCC2)CC1)c1ccccc1 [Example 198]
6.00 to 7.00

In one line, give reported pIC50 of the entry O=C(Nc1ccc(Oc2ccccc2)cc1)N[C@@H](CC(=O)N1CCC(N2Cc3ccccc3NC2=O)CC1)C(=O)N1CCC(N2CCCCC2)CC1 [Example 146] .
7.00 to 8.00

Note pIC50 for the compound shown: O=C(N[C@@H](CC(=O)N1CCC(N2Cc3ccccc3NC2=O)CC1)C(=O)N1CCC(N2CCCCC2)CC1)c1ccc(Br)cc1 [Example 119]
6.00 to 7.00

# return recorded pIC50 for entry O=C(NC(Cc1ccc2[nH]ncc2c1)C(=O)N1CCNCC1)N1CCC(N2Cc3ccccc3NC2=O)CC1 (stereo not shown) [Example 39]
6.00 to 7.00
